# Target: PKR K410E (Homo sapiens, UniProt P30613, K410E)
# Sequence (P30613 whole entry K410E): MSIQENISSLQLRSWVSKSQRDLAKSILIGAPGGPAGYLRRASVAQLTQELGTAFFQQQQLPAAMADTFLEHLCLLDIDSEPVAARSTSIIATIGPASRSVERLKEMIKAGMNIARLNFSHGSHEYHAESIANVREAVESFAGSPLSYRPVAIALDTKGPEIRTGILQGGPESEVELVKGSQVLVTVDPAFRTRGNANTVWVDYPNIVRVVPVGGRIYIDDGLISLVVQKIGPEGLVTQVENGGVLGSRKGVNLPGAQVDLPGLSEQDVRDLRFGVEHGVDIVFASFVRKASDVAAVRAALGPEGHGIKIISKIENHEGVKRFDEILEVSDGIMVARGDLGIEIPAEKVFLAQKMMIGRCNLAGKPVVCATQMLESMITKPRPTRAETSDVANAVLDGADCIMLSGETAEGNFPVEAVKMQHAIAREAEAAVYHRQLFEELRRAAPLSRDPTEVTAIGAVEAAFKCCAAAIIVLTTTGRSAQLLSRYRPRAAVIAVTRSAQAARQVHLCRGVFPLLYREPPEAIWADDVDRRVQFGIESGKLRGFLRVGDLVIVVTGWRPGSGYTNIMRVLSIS
# Method description: PKR mutant assay (K410E), AC50, LDH/NADH-coupled, absorbance at 340 nm
# Assay type: biochemical
# Condition notes: Table 2; enzyme assay
Quantity name: AC50

Some solved cases for reference:
> print(dat)
                                   molecule           result
1  Cn1c2nc(Cc3ccc(=O)[nH]c3)sc2c2cnn(Cc3cccc4[nH]ncc34)c(=O)c21 [Compound 174]  0.301 to 0.8 µM
2  Cn1c2nc(C(O)c3ccccc3)sc2c2cnn(Cc3cccc4[nH]ncc34)c(=O)c21 (centres unmarked) [Compound 117]         < 0.3 µM
3  CC(=O)c1cccc(Cn2ncc3c4sc(C)nc4n(C)c3c2=O)c1 [Compound 56]         < 0.3 µM

// next entry
[in] Give the measured AC50 of Cn1c2nc(CN)sc2c2cnn(Cc3cccc4[nH]ncc34)c(=O)c21 [Compound 132] .
[out] 0.301 to 0.8 µM

----------
# Target: PKR K410E (Homo sapiens, UniProt P30613, K410E)
# Method description: PKR mutant assay (K410E), AC50, LDH/NADH-coupled, absorbance at 340 nm
# Type: biochemical
# Condition notes: Table 2; enzyme assay
The compounds listed here are annotated with their AC50.

Some solved cases for reference:
> print(dat)
                              smiles.string         result
1  Cc1nc2c(s1)c1cnn(Cc3ccc4[nH]cnc4c3)c(=O)c1n2C  301 to 800 nM
2  Cn1c2nc(SCc3ccccc3)sc2c2cnn(Cc3cccc4[nH]ncc34)c(=O)c21       > 800 nM
3  Cn1c2nc(Cc3ccon3)sc2c2cnn(Cc3cccc4[nH]ncc34)c(=O)c21       > 800 nM
4  Cn1c2nc(Cc3cn[nH]c3)sc2c2cnn(Cc3cccc4[nH]ncc34)c(=O)c21       < 300 nM
5  COc1cccc(Cn2ncc3c4sc(Sc5ccccc5)nc4n(C)c3c2=O)c1       < 300 nM

[in] Give the measured AC50 of Cn1c2nc(Cc3ccc(C(N)=O)cc3)sc2c2cnn(Cc3cccc4[nH]ncc34)c(=O)c21 .
[out] > 800 nM

[in] Give the measured AC50 of COc1cccc(Cn2ncc3c4sc(CO)nc4n(C)c3c2=O)c1 .
[out] < 300 nM

[in] Give the measured AC50 of COc1cccc(Cn2ncc3c4sc(S(=O)(=O)c5ccccc5)nc4n(C)c3c2=O)c1 .
[out] 301 to 800 nM

[in] Give the measured AC50 of Cc1nc2c(s1)c1cnn(Cc3cccc(O)c3)c(=O)c1n2C .
[out] < 300 nM

[in] Give the measured AC50 of Cn1c2nc(CCO)sc2c2cnn(Cc3cccc4[nH]ncc34)c(=O)c21 .
[out] < 300 nM

[in] Give the measured AC50 of Cc1cccc(Cc2nc3c(s2)c2cnn(Cc4cccc5[nH]ncc45)c(=O)c2n3C)n1 .
[out] < 300 nM

[in] Give the measured AC50 of CNc1ccc(Cn2ncc3c4sc(C)nc4n(C)c3c2=O)cc1 .
[out] > 800 nM

[in] Give the measured AC50 of Cn1c2nc(Cc3n[nH]cc3C(F)(F)F)sc2c2cnn(Cc3cccc4[nH]ncc34)c(=O)c21 .
[out] > 800 nM
